Recorded measurements of % Inhibition, one per entry
# Test system: P. falciparum stage V gametocytes
# Set-up: BacTiter-Glo ATP luminescence viability of purified stage V gametocytes in 384-well plates, per cent inhibition versus DMSO
# measurement_parameters: 48 h, 5 µM; inhibitor
Screen size: about 13,000 compounds; about 3,200 (25%) showed an effect of 50% or more. The list shows a part of the results.
recorded_endpoint: % Inhibition (%)

- compound: "CNC(=O)COc1cc(C)c(C2CCN(CCCCNC(=O)c3ccc(-c4ccc(C(F)(F)F)cc4)cc3)CC2)cc1C"
  recorded_number: 42.45
- compound: "Cc1cc(NC(=O)[C@H](CC2CCCCC2)Nc2ccc(C#N)c3ccccc23)ccc1F"
  recorded_number: 3.721
- compound: "CCOC(=O)c1cc(C(=O)NCCCCN2CCC(c3cn(C)c4ccccc34)CC2)ccc1-c1ccc(C(F)(F)F)cc1"
  recorded_number: 1.206
- compound: "CCC(CC)(Cc1ccccc1)NC(=O)[C@H](CC(C)C)Nc1ccc(C#N)c2ccccc12"
  recorded_number: -7.489
- compound: "COc1ccc(NC(=O)[C@H](CC(C)C)Nc2cc(C)nc(NCCc3ccc(F)cc3)n2)cc1"
  recorded_number: 11.38
- compound: "Cc1cc(N[C@@H](Cc2ccccc2)C(=O)Nc2ccccc2)nc(Nc2ccccc2)n1"
  recorded_number: -2.834
- compound: "COc1ccc(NC(=O)[C@H](Cc2ccccc2)Nc2cc(C)nc(NCCc3ccc(F)cc3)n2)cc1"
  recorded_number: 103.7
- compound: "O=C(N[C@@H](Cc1ccccc1)[C@H](O)CNC1CCCCC1)c1cc(C2CCCC2)cc(N2CCCC2=O)c1"
  recorded_number: 29.86
- compound: "CC1CCC(C(C)C)C(OC(=O)CSc2nnc3c(n2)[nH]c2ccccc23)C1 (stereo not drawn)"
  recorded_number: 54.66
- compound: "O=C(NCCCCN1CCC(c2ccc3c(c2OCCO)CCCC3)CC1)c1ccc(-c2ccc(C(F)(F)F)cc2)cc1"
  recorded_number: 98.87
- compound: "O=c1ccc2ccc(F)c3c2n1CC3CN1CCC(NCc2ccc(-c3cccc(Cl)c3)nc2)CC1 (stereo not drawn)"
  recorded_number: -72.08
- compound: "Cc1cc(N[C@@H](Cc2ccccc2)C(=O)Nc2ccccc2)nc(NCCc2ccccc2)n1"
  recorded_number: 63.66
- compound: "O=C(NCCCCN1CCC(c2ccc3c(c2OCCO)CCCC3)CC1)c1ccc2oc(-c3ccc(C(F)(F)F)cc3)cc2c1"
  recorded_number: 113.6
- compound: "CC(C)(C)c1ccc(CN(C[C@@H](O)CNS(=O)(=O)c2cc(Cl)cc(Cl)c2)C(C)(C)C)cc1"
  recorded_number: -63.29
- compound: "Cc1cc(N[C@@H](Cc2ccccc2)C(=O)Nc2ccccc2)nc(NCCN2CCCC2)n1"
  recorded_number: 33.54
- compound: "CC(C)(CC1CCCCC1)NC(=O)[C@H](CC1CCCCC1)Nc1ccc(C#N)c2ccccc12"
  recorded_number: -68.15
- compound: "CCCCNc1c(C(=O)OCC)c(C)nc2c1[nH]c1ccccc12"
  recorded_number: -37.58
- compound: "Cc1ccc(-c2ccc3c(c2)C=C(C(=O)NC2CCN(CCNC(=O)c4cccc(C(F)(F)F)c4)CC2)CCC3)cc1"
  recorded_number: -9.898
- compound: "COc1ccc2ncc(F)c(CCN3CCC(CNC(=O)C(=O)c4c[nH]c5ccccc45)CC3)c2n1"
  recorded_number: 3.215
- compound: "COc1cc(Nc2nccc(-c3c(-c4cccc(NC(=O)c5c(F)cccc5F)c4)nn4ccccc34)n2)cc(OC)c1OC"
  recorded_number: -53.25
- compound: "Cc1nc2ccc(/C=C/C(=O)NC3CCC(CCN4CCc5ccc(C#N)cc5CC4)CC3)cc2[nH]1 (stereo not drawn)"
  recorded_number: -3.608
- compound: "CCOC(=O)c1c(C)n(-c2ccccc2)c2ccc(OC(=O)COc3ccc(Cl)cc3Cl)cc12"
  recorded_number: -46.8
- compound: "O=C(NCCCCN1CCC(c2cccc3ccccc23)CC1)c1ccc(-c2ccc(C(F)(F)F)cn2)cc1"
  recorded_number: -25.01
- compound: "COc1ccc(NC(=O)[C@H](Cc2ccccc2)Nc2nc(NCCN3CCCC3)ncc2C)cc1"
  recorded_number: 27.32
- compound: "Cc1nccn1Cc1cc(C(C)(C)C)c(O)c(C(C)(C)C)c1"
  recorded_number: -8.756
- compound: "Cn1cc(C2CCN(CCCCNC(=O)c3ccc(-c4ccc(C(F)(F)F)cc4)c(CO)c3)CC2)c2ccccc21"
  recorded_number: 65.02
- compound: "Cc1cc(N[C@@H](CC(C)C)C(=O)Nc2ccccc2)nc(NCCc2ccccc2)n1"
  recorded_number: 99.12
- compound: "CCC(CC)(Cc1ccccc1)NC(=O)[C@H](CC1CCCCC1)Nc1ccc(C#N)c2ccccc12"
  recorded_number: -0.7992
- compound: "O=C(NCCCCN1CCC(c2ccc3c(c2OCCO)CCCC3)CC1)c1sc(-c2ccc(C(F)(F)F)cc2)nc1CO"
  recorded_number: 39.12
- compound: "CCNc1cc(C)nc(Nc2ccc(NC(=O)c3ccc(OC)c(OC)c3)cc2)n1"
  recorded_number: 8.373
